study system: MMP-13 (Homo sapiens, UniProt P45452)
Construct: catalytic domain (^104Tyr˜^267Gly) was amplified with RT-PCR; His-tag; enterokinase digestion-site; made in house
assay procedure: Assay for inhibitory activities on MMP-13
Type: biochemical
setup conditions: catalytic domain, substrate MOCAc-Pro-Leu-Gly-Leu-A2Pr(DNP)-Ala-Arg-NH2; read-out: MMP-13 (IC50μM)
pIC50: −log10 of the molar value.
reported property: pIC50

>  <molecule>
O=C(O)[C@@H](Cc1ccccc1)NS(=O)(=O)c1ccc(-c2ccc3ccccc3c2)s1 [Compound N-4]

>  <value relation sign>
=

>  <endpoint value>
7.15

$$$$
>  <molecule>
Cc1ccc(-c2ccc(S(=O)(=O)N[C@H](Cc3c[nH]c4ccccc34)C(=O)O)s2)cc1 [Compound F-10]

>  <value relation sign>
=

>  <endpoint value>
6.68

$$$$
>  <molecule>
CC1C(=O)NCCN1S(=O)(=O)c1ccc(-c2ccc(N3CCOCC3)cc2)s1 (centres unmarked) [Compound O-8]

>  <value relation sign>
=

>  <endpoint value>
5.52

$$$$
>  <molecule>
COc1ccc(-c2cnc(-c3ccc(S(=O)(=O)N[C@H](CCSC)C(=O)O)cc3)s2)cc1 [Compound A-3]

>  <value relation sign>
=

>  <endpoint value>
8.64

$$$$
>  <molecule>
CCC(C)C(NS(=O)(=O)c1ccc(-c2ccc(SC)cc2)cc1)C(=O)O (centres unmarked) [Compound E-5]

>  <value relation sign>
=

>  <endpoint value>
8.66

$$$$
>  <molecule>
O=C(O)[C@@H](Cc1ccccc1)NS(=O)(=O)c1ccc(-c2nc(-c3ccc(Cl)cc3)no2)cc1 [Compound D-2]

>  <value relation sign>
=

>  <endpoint value>
6.85

$$$$
>  <molecule>
CCCCc1ccc(-c2ccc(-c3ccc(S(=O)(=O)N[C@@H](C(=O)O)C(C)C)cc3)s2)cc1 [Compound K-2]

>  <value relation sign>
=

>  <endpoint value>
7.94

$$$$
>  <molecule>
O=C(O)[C@@H](Cc1ccccc1)NS(=O)(=O)c1ccc(C#Cc2cccc3ccccc23)s1 [Compound H-7]

>  <value relation sign>
<

>  <endpoint value>
5.00

$$$$

---

study system: MMP-13 (Homo sapiens, UniProt P45452)
Construct: catalytic domain (^104Tyr˜^267Gly) was amplified with RT-PCR; His-tag; enterokinase digestion-site; made in house
assay procedure: Assay for inhibitory activities on MMP-13
Assay type: biochemical
setup conditions: catalytic domain, substrate MOCAc-Pro-Leu-Gly-Leu-A2Pr(DNP)-Ala-Arg-NH2; read-out: MMP-13 (IC50μM)
Just a reminder that ties go to false (0): only IC50 strictly below 0.04 µM counts as true (1).

>  <compound>
CSc1ccc(-c2ccc(S(=O)(=O)N[C@H](CO)C(=O)O)cc2)cc1

>  <discrete label>
true (1)

$$$$
>  <compound>
COc1ccc(-c2ccc(S(=O)(=O)N[C@H](CCSC)C(=O)O)s2)cc1

>  <discrete label>
true (1)

$$$$
>  <compound>
COc1ccc2cc(C#Cc3ccc(S(=O)(=O)N[C@H](Cc4ccccc4)C(=O)O)s3)ccc2c1

>  <discrete label>
false (0)

$$$$
>  <compound>
C[C@@H](NS(=O)(=O)c1ccc(C#Cc2ccc(F)c(F)c2)s1)C(=O)O

>  <discrete label>
false (0)

$$$$
>  <compound>
CC(C)C[C@H](NS(=O)(=O)c1ccc(-c2ncc(-c3ccc(F)cc3)s2)cc1)C(=O)O

>  <discrete label>
true (1)

$$$$
>  <compound>
C[C@@H](NS(=O)(=O)c1ccc(-c2ncc(-c3ccc4c(c3)OCO4)s2)cc1)C(=O)O

>  <discrete label>
true (1)

$$$$
>  <compound>
O=C(O)C(Cc1ccccc1)NS(=O)(=O)c1ccc(-c2ccc(F)cc2)cc1 (stereo not shown)

>  <discrete label>
false (0)

$$$$
>  <compound>
CC(C)C(NS(=O)(=O)c1ccc(-c2ccc(Cl)cc2)cc1)C(=O)O (stereo not shown)

>  <discrete label>
false (0)

$$$$
>  <compound>
C[C@@H](NS(=O)(=O)c1ccc(-c2ccc(-c3ccc4ccccc4c3)cc2)cc1)C(=O)O

>  <discrete label>
true (1)

$$$$
>  <compound>
C[C@@H](NS(=O)(=O)c1ccc(-c2ncc(-c3ccc4ccccc4c3)s2)cc1)C(=O)O

>  <discrete label>
true (1)

$$$$
>  <compound>
CC(=O)Oc1ccc(C#Cc2ccc(S(=O)(=O)N[C@H](Cc3c[nH]c4ccccc34)C(=O)O)cc2)cc1

>  <discrete label>
false (0)

$$$$
>  <compound>
O=C(O)[C@@H](Cc1c[nH]c2ccccc12)NS(=O)(=O)c1ccc(-c2ccc(F)cc2)cc1

>  <discrete label>
true (1)

$$$$
>  <compound>
CCC(C)[C@H](NS(=O)(=O)c1ccc(-c2ncc(-c3ccccc3)s2)cc1)C(=O)O (stereo partly shown)

>  <discrete label>
true (1)

$$$$
>  <compound>
COc1ccc(-c2cnc(-c3ccc(S(=O)(=O)N[C@H](CCC(=O)O)C(=O)O)cc3)s2)cc1

>  <discrete label>
true (1)

$$$$
>  <compound>
CCc1ccc(-c2nc(-c3ccc(S(=O)(=O)N[C@H](Cc4ccccc4)C(=O)O)s3)no2)cc1

>  <discrete label>
false (0)

$$$$
>  <compound>
O=C(O)[C@H](Cc1ccccc1)NS(=O)(=O)c1ccc(-c2noc(-c3ccc4c(c3)OCO4)n2)cc1

>  <discrete label>
false (0)

$$$$

---

Listed compounds paired with reported IC50
study system: MMP-13 (Homo sapiens)
Construct: catalytic domain (^104Tyr˜^267Gly) was amplified with RT-PCR; His-tag; enterokinase digestion-site; made in house
assay procedure: Assay for inhibitory activities on MMP-13
Format: biochemical
setup conditions: catalytic domain, substrate MOCAc-Pro-Leu-Gly-Leu-A2Pr(DNP)-Ala-Arg-NH2; read-out: MMP-13 (IC50μM)

>  <smiles representation>
C[C@H](NS(=O)(=O)c1ccc(-c2ncc(-c3ccc4ccccc4c3)o2)cc1)C(=O)O

>  <unit abbreviation>
µM

>  <value relation sign>
=

>  <IC50>
0.763

$$$$
>  <smiles representation>
CSCC[C@H](NS(=O)(=O)c1ccc(-c2ccc(C(C)=O)cc2)s1)C(=O)O

>  <unit abbreviation>
µM

>  <value relation sign>
=

>  <IC50>
0.106

$$$$
>  <smiles representation>
CSc1ccc(-c2cnc(-c3ccc(S(=O)(=O)N[C@@H](C(=O)O)C(C)C)cc3)s2)cc1

>  <unit abbreviation>
µM

>  <value relation sign>
=

>  <IC50>
0.00033

$$$$
>  <smiles representation>
O=C(O)[C@H](Cc1ccccc1)NS(=O)(=O)c1ccc(-n2nnc(-c3ccc4ccccc4c3)n2)cc1

>  <unit abbreviation>
µM

>  <value relation sign>
>

>  <IC50>
10

$$$$
>  <smiles representation>
CC(C)C[C@H](NS(=O)(=O)c1ccc(-c2ncc(-c3ccc(Cl)cc3)s2)cc1)C(=O)O

>  <unit abbreviation>
µM

>  <value relation sign>
=

>  <IC50>
0.0065

$$$$
>  <smiles representation>
Cc1ccc(C#Cc2ccc(S(=O)(=O)N[C@H](Cc3ccccc3)C(=O)O)cc2[N+](=O)[O-])cc1

>  <unit abbreviation>
µM

>  <value relation sign>
>

>  <IC50>
10

$$$$
>  <smiles representation>
CCCCc1ccc(-n2nnc(-c3ccc(S(=O)(=O)NC4(C(=O)O)CCCCC4)cc3)n2)cc1

>  <unit abbreviation>
µM

>  <value relation sign>
=

>  <IC50>
0.0114

$$$$

---

study system: MMP-13 (Homo sapiens, UniProt P45452)
Construct: catalytic domain (^104Tyr˜^267Gly) was amplified with RT-PCR; His-tag; enterokinase digestion-site; made in house
assay procedure: Assay for inhibitory activities on MMP-13
Assay type: biochemical
pIC50: −log10 of the molar value.

>  <smiles representation>
O=C(O)[C@@H](Cc1ccccc1)NS(=O)(=O)c1ccc(-c2ccc(C#Cc3ccc4ccccc4c3)cc2)cc1

>  <pIC50>
8.00

$$$$

---

# reported pIC50; entries follow
study system: MMP-13 (Homo sapiens, UniProt P45452)
Construct: catalytic domain (^104Tyr˜^267Gly) was amplified with RT-PCR; His-tag; enterokinase digestion-site; made in house
assay procedure: Assay for inhibitory activities on MMP-13
Format: biochemical
setup conditions: catalytic domain, substrate MOCAc-Pro-Leu-Gly-Leu-A2Pr(DNP)-Ala-Arg-NH2; read-out: MMP-13 (IC50μM)
pIC50: −log10 of the molar value.
reported property: pIC50

>  <compound>
CSCC[C@@H](NS(=O)(=O)c1ccc(-c2ncc(-c3ccc(Cl)c(Cl)c3)s2)cc1)C(=O)O

>  <study system>
MMP-13 (Homo sapiens, UniProt P45452)

>  <endpoint value>
7.87

$$$$
>  <compound>
CSc1ccc(-c2ccc(S(=O)(=O)NC(CC(C)C)C(=O)O)s2)cc1 (stereo not shown)

>  <study system>
MMP-13 (Homo sapiens, UniProt P45452)

>  <endpoint value>
8.03

$$$$
>  <compound>
CC(C)C[C@@H](NS(=O)(=O)c1ccc(-c2ccc(N3CCCCC3)cc2)s1)C(=O)O

>  <study system>
MMP-13 (Homo sapiens, UniProt P45452)

>  <endpoint value>
6.60

$$$$
>  <compound>
O=C(O)[C@H](Cc1c[nH]c2ccccc12)NS(=O)(=O)c1ccc(-c2ccc(N3CCCC3)cc2)s1

>  <study system>
MMP-13 (Homo sapiens, UniProt P45452)

>  <endpoint value>
7.37

$$$$
>  <compound>
O=C(O)[C@@H]1[C@@H](NS(=O)(=O)c2ccc(-c3ccc(N4CCCC4)cc3)s2)[C@H]2C=C[C@@H]1C2

>  <study system>
MMP-13 (Homo sapiens, UniProt P45452)

>  <endpoint value>
6.22

$$$$
>  <compound>
Cc1ccc(-c2ccc(S(=O)(=O)N[C@@H](Cc3c[nH]c4ccccc34)C(=O)O)s2)cc1

>  <study system>
MMP-13 (Homo sapiens, UniProt P45452)

>  <endpoint value>
6.20

$$$$
>  <compound>
O=C(O)CNS(=O)(=O)c1ccc(-c2ccc(N3CCCC3)cc2)s1

>  <study system>
MMP-13 (Homo sapiens, UniProt P45452)

>  <endpoint value>
7.48

$$$$
